Let's look at some compounds and their measured Emax.
- STUDY TARGET: ERβ (Homo sapiens, UniProt Q92731)
- Construct: pSG5-ERα/β FL (Heg0/ERβ0); expressed in transfected cells; host or cells: U-20S (U-2 OS) cells, transient transfection with FuGENE 6
- Sequence (Q92731 whole entry, species assumed): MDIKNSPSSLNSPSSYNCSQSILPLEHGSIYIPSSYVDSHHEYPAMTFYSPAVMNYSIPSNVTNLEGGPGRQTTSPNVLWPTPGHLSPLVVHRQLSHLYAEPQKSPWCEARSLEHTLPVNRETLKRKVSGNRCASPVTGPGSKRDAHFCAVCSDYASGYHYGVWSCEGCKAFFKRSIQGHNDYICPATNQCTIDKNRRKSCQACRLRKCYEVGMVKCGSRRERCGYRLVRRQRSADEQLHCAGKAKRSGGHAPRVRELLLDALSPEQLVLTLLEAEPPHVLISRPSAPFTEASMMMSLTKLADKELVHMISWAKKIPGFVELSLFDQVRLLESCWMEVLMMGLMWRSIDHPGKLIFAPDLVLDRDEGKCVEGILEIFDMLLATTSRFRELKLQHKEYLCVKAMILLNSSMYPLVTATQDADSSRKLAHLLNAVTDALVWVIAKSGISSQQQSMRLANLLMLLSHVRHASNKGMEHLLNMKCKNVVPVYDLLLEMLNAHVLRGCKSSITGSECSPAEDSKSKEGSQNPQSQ
- PROTOCOL DETAILS: Transactivation test for estrogenic agonists and antagonists, ERβ, U-20S cells, luciferase reporter
- Type: cell-based
- EXPERIMENTAL CONTEXT: U-20S cells, luciferase activity; read-out: Efficacy[%] ERβ
The figure you give is taken to be in %; do not add the unit.

Consider the following illustrative entries.
COMPOUND	VAL
C=C[C@@]12CCc3cc(O)ccc3C1[C@@H](CCCC[C@@H](O)C(F)(F)F)C[C@@]1(C)C2CC[C@@H]1O (mixture of isomers) [15a D1/2]	100
C=C[C@@]12CCc3cc(O)ccc3[C@H]1[C@@H](CCCCCC#N)C[C@@]1(C)[C@H]2CC[C@@H]1O [Compound 36]	100
CCCCCC[C@H]1C[C@@]2(C)C(CC[C@@H]2O)[C@]2(C)CCc3cc(O)ccc3C12 (stereo partly shown) [reference compound]	98

Note: attention shifts to another entry.
Result for C=C[C@@]12CCc3cc(O)ccc3[C@H]1[C@@H](CCCCCSC#N)C[C@@]1(C)[C@H]2CC[C@@H]1O [Compound 35] , tested on ERβ (Homo sapiens, UniProt Q92731), Emax: 95

---

- STUDY TARGET: ERα (Homo sapiens)
- Construct: pSG5-ERα/β FL (Heg0/ERβ0); expressed in transfected cells; host or cells: U-20S (U-2 OS) cells, transient transfection with FuGENE 6
- Sequence (P03372 1-595): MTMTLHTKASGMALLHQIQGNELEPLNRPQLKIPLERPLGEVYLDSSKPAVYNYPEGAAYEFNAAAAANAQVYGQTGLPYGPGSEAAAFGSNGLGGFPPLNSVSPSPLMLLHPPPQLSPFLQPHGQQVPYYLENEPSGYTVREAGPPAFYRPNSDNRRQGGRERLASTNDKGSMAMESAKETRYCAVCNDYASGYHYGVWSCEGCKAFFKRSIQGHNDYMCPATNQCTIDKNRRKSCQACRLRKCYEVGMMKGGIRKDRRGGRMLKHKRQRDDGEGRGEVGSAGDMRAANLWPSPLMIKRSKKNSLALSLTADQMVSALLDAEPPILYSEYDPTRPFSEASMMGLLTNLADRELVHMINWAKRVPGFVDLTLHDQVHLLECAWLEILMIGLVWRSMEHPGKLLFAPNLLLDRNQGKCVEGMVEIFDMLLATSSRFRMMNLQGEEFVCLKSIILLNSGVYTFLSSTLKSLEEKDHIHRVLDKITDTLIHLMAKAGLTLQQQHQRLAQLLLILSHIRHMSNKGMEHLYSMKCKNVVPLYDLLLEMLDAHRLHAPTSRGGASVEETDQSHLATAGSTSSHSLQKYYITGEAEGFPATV
- PROTOCOL DETAILS: Transactivation test for estrogenic agonists and antagonists, ERα, U-20S cells, luciferase reporter
- Assay type: cell-based
EXPERIMENTAL READOUT: EMR (EC50 )[%] ERα (%)
The figure you give is taken to be in %; do not add the unit.

Consider the following illustrative entries.
COMPOUND	STUDY TARGET	EXPERIMENTAL READOUT	UNIT OF MEASURE	VAL
C=C[C@@]12CCc3cc(O)ccc3[C@H]1[C@@H](CCCCCN1CCCC1)C[C@@]1(C)[C@H]2CC[C@@H]1O [Compound 26a]	ERα (Homo sapiens)	EMR (EC50 )[%] ERα	%	7.9
C=C[C@@]12CCc3cc(O)ccc3[C@H]1[C@@H](CCCCCCN(C)C)C[C@@]1(C)[C@H]2CC[C@@H]1O [Compound 25b]	ERα (Homo sapiens)	EMR (EC50 )[%] ERα	%	17
CCCCCC[C@H]1C[C@@]2(C)C(CC[C@@H]2O)[C@]2(C)CCc3cc(O)ccc3C12 (stereo partly shown) [reference compound]	ERα (Homo sapiens)	EMR (EC50 )[%] ERα	%	0.3

Note: attention shifts to another entry.
The reported EMR (EC50 )[%] ERα of the compound C=C[C@@]12CCc3cc(O)ccc3[C@H]1[C@@H](CCCCCSC#N)C[C@@]1(C)[C@H]2CC[C@@H]1O was 0.7
